# key: entry, value: relative viability
Test system: HCC-827
Assay: relative viability (nuclei count vs DMSO), 5 days (fraction); higher = more cells survive
Settings: first compound 8 µM
# output: bare number, no unit

- compound: "O=c1[nH]c2ccccc2n1C1CCN(CCCC(c2ccc(F)cc2)c2ccc(F)cc2)CC1 [Pimozide] + CS(=O)(=O)CCNCc1ccc(-c2ccc3ncnc(Nc4ccc(OCc5cccc(F)c5)c(Cl)c4)c3c2)o1 [Lapatinib] (partner 2 µM)"
  relative viability: 0.194

# context switch: different compound, same relative viability
Requested read-out relative viability, target or system HCC-827, entry O=c1[nH]c2ccccc2n1C1CCN(CCCC(c2ccc(F)cc2)c2ccc(F)cc2)CC1 [Pimozide] + Nc1ncn([C@H]2C[C@H](O)[C@@H](CO)O2)c(=O)n1 [Decitabine] (partner 2 µM)
0.32

----------
System: NCI-H2170
Experiment: relative viability (nuclei count vs DMSO), 5 days (fraction); higher = more cells survive
Conditions: first compound 2.53 µM
# key: entry, value: relative viability
# output: bare number, no unit

- molecule: "Cc1cnc(-c2cnc(NCCNc3ccc(C#N)cn3)nc2-c2ccc(Cl)cc2Cl)[nH]1 + CC(=O)Nc1cccc(-n2c(=O)n(C3CC3)c(=O)c3c(Nc4ccc(I)cc4F)n(C)c(=O)c(C)c32)c1 [Trametinib] (partner 0.02 µM)"
  relative viability: 0.788
- molecule: "Cc1cnc(-c2cnc(NCCNc3ccc(C#N)cn3)nc2-c2ccc(Cl)cc2Cl)[nH]1 + Cc1nc(Nc2ncc(C(=O)Nc3c(C)cccc3Cl)s2)cc(N2CCN(CCO)CC2)n1 [Dasatinib] (partner 0.075 µM)"
  relative viability: 0.487
- molecule: "O=c1[nH]c2ccccc2n1C1CCN(CCCC(c2ccc(F)cc2)c2ccc(F)cc2)CC1 [Pimozide] + Nc1nc2[nH]cc(CCc3ccc(C(=O)N[C@@H](CCC(=O)O)C(=O)O)cc3)c2c(=O)[nH]1 [Pemetrexed] (partner 0.2 µM)"
  relative viability: 0.258
- molecule: "O=c1[nH]c2ccccc2n1C1CCN(CCCC(c2ccc(F)cc2)c2ccc(F)cc2)CC1 [Pimozide] + C[C@@H](Oc1cc(-c2cnn(C3CCNCC3)c2)cnc1N)c1c(Cl)ccc(F)c1Cl [Crizotinib] (partner 1 µM)"
  relative viability: 1.22

Looking for the measured relative viability of O=c1[nH]c2ccccc2n1C1CCN(CCCC(c2ccc(F)cc2)c2ccc(F)cc2)CC1 [Pimozide] + CCNC(=O)c1noc(-c2cc(C(C)C)c(O)cc2O)c1-c1ccc(CN2CCOCC2)cc1 [Luminespib] (partner 0.01 µM) , can you help?
0.624

Looking for the measured relative viability of O=c1[nH]c2ccccc2n1C1CCN(CCCC(c2ccc(F)cc2)c2ccc(F)cc2)CC1 [Pimozide] + CS(=O)(=O)CCNCc1ccc(-c2ccc3ncnc(Nc4ccc(OCc5cccc(F)c5)c(Cl)c4)c3c2)o1 [Lapatinib] (partner 2 µM) , can you help?
0.283

Looking for the measured relative viability of O=c1[nH]c2ccccc2n1C1CCN(CCCC(c2ccc(F)cc2)c2ccc(F)cc2)CC1 [Pimozide] + CS(=O)(=O)N1CCN(Cc2cc3nc(-c4cccc5[nH]ncc45)nc(N4CCOCC4)c3s2)CC1 [Pictilisib] (partner 1 µM) , can you help?
0.326

Looking for the measured relative viability of Cc1cnc(-c2cnc(NCCNc3ccc(C#N)cn3)nc2-c2ccc(Cl)cc2Cl)[nH]1 + N=C(N)NC(=N)NCCc1ccccc1 [Phenformin] (partner 250 µM) , can you help?
0.348

----------
Test system: NCI-H1793
Assay: relative viability (nuclei count vs DMSO), 5 days (fraction); higher = more cells survive
Details: first compound 0.08 µM
# key: entry, value: relative viability
# output: bare number, no unit

- molecule: "Cc1cnc(-c2cnc(NCCNc3ccc(C#N)cn3)nc2-c2ccc(Cl)cc2Cl)[nH]1 + C[C@]1(O)C[C@@H](c2nc(-c3ccc4ccc(-c5ccccc5)nc4c3)c3c(N)nccn32)C1 [Linsitinib] (partner 1 µM)"
  relative viability: 1.16
- molecule: "Cc1cnc(-c2cnc(NCCNc3ccc(C#N)cn3)nc2-c2ccc(Cl)cc2Cl)[nH]1 + CC1(C)CCC(c2ccc(Cl)cc2)=C(CN2CCN(c3ccc(C(=O)NS(=O)(=O)c4ccc(N[C@H](CCN5CCOCC5)CSc5ccccc5)c(S(=O)(=O)C(F)(F)F)c4)cc3)CC2)C1 [Navitoclax] (partner 0.5 µM)"
  relative viability: 0.399
- molecule: "Cc1cnc(-c2cnc(NCCNc3ccc(C#N)cn3)nc2-c2ccc(Cl)cc2Cl)[nH]1 + CC(=O)c1c(C)c2cnc(Nc3ccc(N4CCNCC4)cn3)nc2n(C2CCCC2)c1=O [Palbociclib] (partner 0.5 µM)"
  relative viability: 0.336
- molecule: "Cc1cnc(-c2cnc(NCCNc3ccc(C#N)cn3)nc2-c2ccc(Cl)cc2Cl)[nH]1 + Nc1nc2[nH]cc(CCc3ccc(C(=O)N[C@@H](CCC(=O)O)C(=O)O)cc3)c2c(=O)[nH]1 [Pemetrexed] (partner 0.2 µM)"
  relative viability: 1.04
- molecule: "Cc1cnc(-c2cnc(NCCNc3ccc(C#N)cn3)nc2-c2ccc(Cl)cc2Cl)[nH]1 + O=C(c1cc(Cc2n[nH]c(=O)c3ccccc23)ccc1F)N1CCN(C(=O)C2CC2)CC1 [Olaparib] (partner 8 µM)"
  relative viability: 1.01
- molecule: "Cc1cnc(-c2cnc(NCCNc3ccc(C#N)cn3)nc2-c2ccc(Cl)cc2Cl)[nH]1 + Cc1nc(NC(=O)N2CCC[C@H]2C(N)=O)sc1-c1ccnc(C(C)(C)C(F)(F)F)c1 [Alpelisib] (partner 2 µM)"
  relative viability: 0.838
- molecule: "O=c1[nH]c2ccccc2n1C1CCN(CCCC(c2ccc(F)cc2)c2ccc(F)cc2)CC1 [Pimozide] + O=C(c1cc(Cc2n[nH]c(=O)c3ccccc23)ccc1F)N1CCN(C(=O)C2CC2)CC1 [Olaparib] (partner 8 µM)"
  relative viability: 0.762

# context switch: different molecule, same relative viability
Requested read-out relative viability, target or system NCI-H1793, entry O=c1[nH]c2ccccc2n1C1CCN(CCCC(c2ccc(F)cc2)c2ccc(F)cc2)CC1 [Pimozide] + Cc1nc(NC(=O)N2CCC[C@H]2C(N)=O)sc1-c1ccnc(C(C)(C)C(F)(F)F)c1 [Alpelisib] (partner 2 µM)
0.491

----------
Tested on: NCI-H661
Assay: relative viability (nuclei count vs DMSO), 5 days (fraction); higher = more cells survive
Settings: first compound 0.005 µM
Entries whose relative viability is below 0.5 take satisfied; entries at or above 0.5 take not satisfied.

Past entries and their recorded results:
- compound: "COc1cc2nccc(Oc3ccc(NC(=O)Nc4cc(C)on4)c(Cl)c3)c2cc1OC [Tivozanib] + N=C(N)NC(=N)NCCc1ccccc1 [Phenformin] (partner 250 µM)"
  category: "satisfied"
- compound: "COc1cc2nccc(Oc3ccc(NC(=O)Nc4cc(C)on4)c(Cl)c3)c2cc1OC [Tivozanib] + Cc1nc(NC(=O)N2CCC[C@H]2C(N)=O)sc1-c1ccnc(C(C)(C)C(F)(F)F)c1 [Alpelisib] (partner 2 µM)"
  category: "not satisfied"
- compound: "COc1cc2nccc(Oc3ccc(NC(=O)Nc4cc(C)on4)c(Cl)c3)c2cc1OC [Tivozanib] + CC(C)C[C@H](NC(=O)[C@H](Cc1ccccc1)NC(=O)c1cnccn1)B(O)O [Bortezomib] (partner 0.002 µM)"
  category: "not satisfied"
- compound: "COc1cc2nccc(Oc3ccc(NC(=O)Nc4cc(C)on4)c(Cl)c3)c2cc1OC [Tivozanib] + CS(=O)(=O)N1CCN(Cc2cc3nc(-c4cccc5[nH]ncc45)nc(N4CCOCC4)c3s2)CC1 [Pictilisib] (partner 1 µM)"
  category: "satisfied"

Strictly below 0.5 in relative viability? COc1cc2nccc(Oc3ccc(NC(=O)Nc4cc(C)on4)c(Cl)c3)c2cc1OC [Tivozanib] + C[C@]1(O)C[C@@H](c2nc(-c3ccc4ccc(-c5ccccc5)nc4c3)c3c(N)nccn32)C1 [Linsitinib] (partner 1 µM)
not satisfied

Strictly below 0.5 in relative viability? Nc1ccn([C@@H]2O[C@H](CO)[C@@H](O)[C@@H]2O)c(=O)n1 [Cytarabine] + O=C(c1cc(Cc2n[nH]c(=O)c3ccccc23)ccc1F)N1CCN(C(=O)C2CC2)CC1 [Olaparib] (partner 8 µM)
not satisfied

Strictly below 0.5 in relative viability? COc1cc2nccc(Oc3ccc(NC(=O)Nc4cc(C)on4)c(Cl)c3)c2cc1OC [Tivozanib] + Cc1nc(Nc2ncc(C(=O)Nc3c(C)cccc3Cl)s2)cc(N2CCN(CCO)CC2)n1 [Dasatinib] (partner 0.075 µM)
not satisfied

----------
System: COR-L23
Experiment: relative viability (nuclei count vs DMSO), 5 days (fraction); higher = more cells survive
Details: first compound 0.1265 µM
Entries whose relative viability is below 0.5 take true (1); entries at or above 0.5 take false (0).

Past entries and their recorded results:
- molecule: "Cc1sc2c(c1C)C(c1ccc(Cl)cc1)=N[C@@H](CC(=O)OC(C)(C)C)c1nnc(C)n1-2 [JQ1] + C[C@@H](Oc1cc(-c2cnn(C3CCNCC3)c2)cnc1N)c1c(Cl)ccc(F)c1Cl [Crizotinib] (partner 1 µM)"
  category: "true (1)"
- molecule: "Cc1sc2c(c1C)C(c1ccc(Cl)cc1)=N[C@@H](CC(=O)OC(C)(C)C)c1nnc(C)n1-2 [JQ1] + CS(=O)(=O)CCNCc1ccc(-c2ccc3ncnc(Nc4ccc(OCc5cccc(F)c5)c(Cl)c4)c3c2)o1 [Lapatinib] (partner 2 µM)"
  category: "false (0)"
- molecule: "Cc1sc2c(c1C)C(c1ccc(Cl)cc1)=N[C@@H](CC(=O)OC(C)(C)C)c1nnc(C)n1-2 [JQ1] + CCNC(=O)c1noc(-c2cc(C(C)C)c(O)cc2O)c1-c1ccc(CN2CCOCC2)cc1 [Luminespib] (partner 0.01 µM)"
  category: "false (0)"
- molecule: "Cc1sc2c(c1C)C(c1ccc(Cl)cc1)=N[C@@H](CC(=O)OC(C)(C)C)c1nnc(C)n1-2 [JQ1] + CC(=O)c1c(C)c2cnc(Nc3ccc(N4CCNCC4)cn3)nc2n(C2CCCC2)c1=O [Palbociclib] (partner 0.5 µM)"
  category: "true (1)"

Pending molecule:
Strictly below 0.5 in relative viability? Cc1sc2c(c1C)C(c1ccc(Cl)cc1)=N[C@@H](CC(=O)OC(C)(C)C)c1nnc(C)n1-2 [JQ1] + Cc1nc(Nc2ncc(C(=O)Nc3c(C)cccc3Cl)s2)cc(N2CCN(CCO)CC2)n1 [Dasatinib] (partner 0.075 µM)
true (1)
